# TARGET: Estrogen Receptors extracted from MCF-7 cells (Homo sapiens)
# Construct: Estrogen Receptors extracted from MCF-7 cells; endogenous in cells; host or cells: MCF-7 (ATCC) cytosol
# Sequence (P03372 whole entry): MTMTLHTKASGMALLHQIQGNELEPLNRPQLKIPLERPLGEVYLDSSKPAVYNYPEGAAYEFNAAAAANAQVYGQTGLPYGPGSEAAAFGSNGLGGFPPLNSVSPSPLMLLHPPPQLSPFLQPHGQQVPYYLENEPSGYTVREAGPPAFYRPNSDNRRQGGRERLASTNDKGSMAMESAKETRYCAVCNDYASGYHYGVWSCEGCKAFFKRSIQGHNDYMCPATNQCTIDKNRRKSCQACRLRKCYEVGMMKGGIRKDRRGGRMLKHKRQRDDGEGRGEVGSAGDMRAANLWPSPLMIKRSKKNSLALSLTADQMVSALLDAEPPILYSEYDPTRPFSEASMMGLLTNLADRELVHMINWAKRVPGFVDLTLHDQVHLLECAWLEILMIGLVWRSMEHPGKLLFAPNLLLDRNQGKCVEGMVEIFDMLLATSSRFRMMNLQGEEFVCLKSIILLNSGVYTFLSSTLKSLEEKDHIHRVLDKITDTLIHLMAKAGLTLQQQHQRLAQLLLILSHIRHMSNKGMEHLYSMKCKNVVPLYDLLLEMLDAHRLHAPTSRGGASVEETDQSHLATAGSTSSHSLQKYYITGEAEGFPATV
# TEST NAME: Ligand binding competition assay (Estrogen Receptor), [3H]Estradiol
# MEASUREMENT CONDITIONS: cis-stilbenes
QUANTITY KIND: ER RBA (relative binding affinity)

{"QUERY SMILES": "COc1ccc(/C=C\\c2cc(Cl)cc(Cl)c2)cc1", "ER RBA (relative binding affinity)": "N.M"}
{"QUERY SMILES": "COc1cc(/C=C\\c2ccc(F)cc2)cc(OC)c1", "ER RBA (relative binding affinity)": "N.M"}
{"QUERY SMILES": "FC(F)(F)c1ccc(/C=C\\c2cc(Cl)cc(Cl)c2)cc1", "ER RBA (relative binding affinity)": "N.M"}
{"QUERY SMILES": "COc1ccc(/C=C\\c2cc(OC)cc(OC)c2)cc1", "ER RBA (relative binding affinity)": 0.06}

Q. Please give the measured ER RBA (relative binding affinity) for this compound: COc1ccc(/C=C\c2cc(F)cc(F)c2)cc1
A. N.M

Data provenance is patent US20040147788A1.
